Target: Torsin-1A-interacting protein 2 (Homo sapiens) (UniProt Q8NFQ8)
Sequence (Q8NFQ8 whole entry, looked up): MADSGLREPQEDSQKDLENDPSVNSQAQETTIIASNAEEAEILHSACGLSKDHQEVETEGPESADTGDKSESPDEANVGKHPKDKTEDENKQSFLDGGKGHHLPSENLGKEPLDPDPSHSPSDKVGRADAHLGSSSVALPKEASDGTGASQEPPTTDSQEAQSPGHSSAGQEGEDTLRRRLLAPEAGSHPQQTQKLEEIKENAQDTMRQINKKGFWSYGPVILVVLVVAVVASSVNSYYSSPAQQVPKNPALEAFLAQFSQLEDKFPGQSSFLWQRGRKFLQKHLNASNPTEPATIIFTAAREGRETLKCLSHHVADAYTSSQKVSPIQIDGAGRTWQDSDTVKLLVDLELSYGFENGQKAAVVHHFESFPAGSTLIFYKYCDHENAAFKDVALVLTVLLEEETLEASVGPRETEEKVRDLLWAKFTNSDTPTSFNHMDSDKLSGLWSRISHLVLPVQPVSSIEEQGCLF
Assay: LULL1 binders on small-molecule microarray, primary screen, cell lysate, human LULL1 lysate, 635/667 nm fluorescence (AID 1092);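 note: probe is lysate of COS7 cells overexpressing human LULL1; score merges per-feature 667 nm fluorescence with signal-to-noise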
Details: hLULL1 lysate binding, 635 nm fluorescence, higher = more signal
REPORTED PROPERTY: composite z-score

INSERT INTO measurements (smiles_record, reported_result) VALUES
  ('COC(=O)[C@@]1(Cc2ccc(F)cc2)[C@H]2c3cc(C(=O)N(C)C)n(Cc4ccc(OC)c(OC)c4)c3C[C@H]2CN1C(=O)c1ccccc1', 1.54),
  ('COc1ccc(COC(=O)NN=C2C[C@@H](O)[C@@H](O)[C@@H]3[C@@H]4C(=O)N(c5ccc(F)cc5F)C(=O)[C@@H]4CC[C@@H]23)cc1', -0.524),
  ('CC(C)C[C@@H]1NC(=O)[C@H]2C[C@@H](C(=O)NCCCCCCN(C)C)[C@@H](c3cccc(OCCO)c3)N2C1=O', 2.12),
  ('CC(C)(C)N1C(=O)[C@H]2[C@H]3[C@H](O)[C@H](O)CC(=NO[C@@H]4O[C@H](CO)[C@@H](O)[C@H](O)[C@H]4O)[C@@H]3CC[C@H]2C1=O', 1.97),
  ('COc1ccc(O[C@H]2C=C[C@@H](c3ccccc3)O[C@@H]2CON=C[C@@H](C)[C@H](OCc2ccccc2)C(C)C)cc1', -1.14),
  ('O=C1[C@H]2[C@H]3[C@H](O)[C@H](O)CC(=NOC[C@@H](O)COCc4ccco4)[C@H]3CC[C@H]2C(=O)N1Cc1ccc2c(c1)OCO2', -0.829),
  ('CC(C)=NOCc1ccc(-c2cc(-c3ccccc3)no2)cc1', 0.108);

* * *

Molecular target: Torsin-1A-interacting protein 1 (Homo sapiens)
Assay: LAP1 binders from COS7 cell lysate, primary screen, small-molecule microarray, 635/667 nm fluorescence (AID 1116)
Settings: COS7-hLAP1 lysate binding, 635 nm fluorescence, higher = more signal
We use 0.5 as the dividing line for composite z-score: on or above the line is Fulfilled, below is Not fulfilled.

INSERT INTO measurements (molecule, group_label) VALUES
  ('CC(C)OC(=O)C=C1C[C@@H](c2ccc(C#N)cc2)O[C@@H](c2ccc(C#N)cc2)O1', 'Fulfilled'),
  ('C=C(CCCC)C(=O)CC[C@@H](OC(C)=O)c1cccc(OCCO)c1', 'Fulfilled'),
  ('COC(=O)[C@@H]1CCCN1C(=O)[C@@H](C)CO', 'Not fulfilled'),
  ('O=C1C[C@@H](O)[C@@H](O)[C@@H]2[C@@H]3C(=O)N(c4cccc(Oc5ccccc5)c4)C(=O)[C@@H]3CC[C@@H]12', 'Fulfilled'),
  ('CC(=O)C[C@H](O)[C@@H](NC(=O)OC(C)(C)C)C(C)C', 'Not fulfilled'),
  ('CCCNC(=O)OC[C@H]1O[C@H](CCON=C2[C@H]3CCn4c(=O)n(-c5ccccc5)c(=O)n4[C@H]3[C@H](O)[C@@H]3O[C@H]23)C=C[C@@H]1Oc1ccc(OC)cc1', 'Not fulfilled'),
  ('CO[C@H]1COC(=O)[C@H](C)NC(=O)[C@@H](C)COC(=O)CC=C[C@@H]1C', 'Fulfilled'),
  ('CO[C@H]1COC(=O)[C@@H]2CCCN2C(=O)[C@@H](C)COC(=O)CC=C[C@@H]1C', 'Fulfilled'),
  ('C[C@@H]1C=CCC(=O)OC[C@H](C)C(=O)OC[C@H]2O[C@H]1C=C[C@H]2O', 'Not fulfilled'),
  ('CCOC(=O)[C@H](Cc1ccccc1)NC(=O)CCC1CC(OC(=O)NCc2ccc3c(c2)OCO3)CC2(CCCC(COC(=O)NCC3CCCCC3)O2)O1 (some centres not stated)', 'Fulfilled'),
  ('O=C1[C@H]2[C@H]3[C@H](O)[C@H](O)CC(=NOC[C@@H](O)COCc4ccco4)[C@H]3CC[C@H]2C(=O)N1C1CCCCC1', 'Not fulfilled'),
  ('CO[C@H]1COC(=O)[C@@H]2CCCN2C(=O)CC=C[C@@H](C)[C@H](OC)COC(=O)CC=C[C@@H]1C', 'Not fulfilled'),
  ('CO[C@H]1COC(=O)CC=C[C@H](C)[C@@H](NS(=O)(=O)c2ccc(C)cc2)COC(=O)CC=C[C@@H]1C', 'Not fulfilled'),
  ('CCOC(=O)CCN1C(=O)[C@H]2[C@H]3[C@H](O)[C@H](O)CC(=NNC(=O)OCc4ccc(OC)cc4)[C@@H]3CC[C@H]2C1=O', 'Fulfilled'),
  ('COC(=O)CC=C[C@@H](C)[C@@H](C=NO[C@@H](C)c1cc(-c2c(C)cc(C)cc2C)no1)OC', 'Not fulfilled'),
  ('O=C1CCCC2OC12C(O)CCc1ccccc1 (configuration not stated)', 'Not fulfilled');

* * *

Attribute: z-score
Target: Luciferin 4-monooxygenase (Photinus pyralis)
Experiment: firefly luciferase enzyme inhibitors, primary screen, biochemical, luminescence, purified enzyme, 2006 set (AID 1141);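 note: cell-free assay with purified firefly luciferase at 100 ng per well in PBS; test concentration not given here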
Settings: SteadyGlo luminescence, 30 min, higher = more signal, called active from +8 up or from −8 down
REPORTED PROPERTY: z-score

INSERT INTO results (compound, reported_result) VALUES
  ('O=C1O[C@@H](c2ccccc2)[C@@H](c2ccccc2)N2[C@@H](c3ccccc3OCCO)[C@]3(C(=O)Nc4ccc(C#CCCO)cc43)[C@@H](C(=O)O)[C@H]12', -0.703),
  ('NCCCCCNC(=O)[C@@H]1C[C@@H]2C(=O)N3CCC[C@H]3C(=O)N2[C@@H]1c1cccc(OCCO)c1', -0.115),
  ('COc1cccc([C@H]2Oc3ccc(OC)cc3C(=NO[C@H](C)c3cn([C@@H]4COC[C@H]4O)nn3)[C@@H]2O)c1', 0.825),
  ('CCOC(=O)CCN1C(=O)[C@H]2[C@H]3[C@H](O)[C@H](O)CC(=NNC(=O)OCc4ccc(OC)cc4)[C@@H]3CC[C@H]2C1=O', 0.666),
  ('[N-]=[N+]=Nc1ccccc1C[C@@]1(C(N)=O)N=C(c2ccc(OCCCO)cc2)O[C@@H]1c1ccccc1', -3.86),
  ('COCCCNC(=O)[C@]1(CCC(=O)OC(C)(C)C)N=C(c2ccc(OCCCO)cc2)O[C@@H]1c1ccccc1N=[N+]=[N-]', -12),
  ('O=C1[C@H]2[C@H]3[C@H](O)[C@H](O)CC(=NOCc4ccccc4)[C@H]3CC[C@H]2C(=O)N1c1ccc(F)cc1F', 0.522),
  ('Cn1c(=O)n2n(c1=O)[C@H]1[C@H](O)[C@@H]3O[C@@H]3C(=NOC[C@@H](O)COCc3ccco3)[C@H]1CC2', -0.508),
  ('COC(=O)[C@H](C)NC(=O)[C@@H](C)CO', 0.877),
  ('COC(=O)C1=CCC(c2cccc(Cl)c2)O1 (stereo not given)', 1.74),
  ('CC(=O)C[C@H](O)[C@@H](NC(=O)OC(C)(C)C)C(C)C', 0.364),
  ('CCOC(=O)NN=C1C[C@@H](O)[C@@H](O)[C@@H]2[C@@H]3C(=O)N(C4CCCCC4)C(=O)[C@@H]3CC[C@H]12', 0.63),
  ('O=C1[C@H]2[C@H]3[C@H](O)[C@H](O)CC(=NOC[C@@H](O)COCc4ccco4)[C@H]3CC[C@H]2C(=O)N1Cc1ccc2c(c1)OCO2', 0.546),
  ('CC(CCN1CCc2nc(-c3ccccc3)c(-c3ccccc3)cc2C1)=NOC[C@@H](C)[C@H](OCc1ccccc1)C(C)C', -1.09),
  ('O=C1O[C@@H](c2ccccc2)[C@@H](c2ccccc2)N2[C@@H](c3ccc(OCCO)cc3)[C@]3(C(=O)Nc4ccc(C#CCCO)cc43)[C@@H](C(=O)N3CCCCCCC3)[C@H]12', -1.62);

* * *

Measured composite z-score accompanies every entry in the list below.
Assay: anti-His antibody binders, primary screen, artefact control for SMM control protein annotation, biochemical, small-molecule microarray, 635 nm fluorescence (AID 1128);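 note: score merges feature fluorescence with signal-to-noise for each printed compound spot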
Details: anti-His Alexa647 antibody binding, higher = more signal
REPORTED PROPERTY: composite z-score

INSERT INTO measurements (molecule, reported_property, reported_result) VALUES
  ('O=C1[C@H]2[C@H]3[C@H](O)[C@H](O)CC(=NOCc4ccccc4)[C@H]3CC[C@H]2C(=O)N1c1ccc(F)cc1F', 'composite z-score', 0.492),
  ('CO[C@H]1COC(=O)[C@@H]2CCCN2C(=O)CC=C[C@@H](C)[C@H](OC)COC(=O)CC=C[C@@H]1C', 'composite z-score', -0.287),
  ('CCCNC(=O)OC[C@H]1O[C@H](CCON=C[C@@H](OC)[C@H](C)C=CCC(=O)OC)C=C[C@@H]1Oc1ccc(OC)cc1', 'composite z-score', 2.2),
  ('COc1ccc(O[C@H]2C=C[C@@H](c3ccccc3)O[C@@H]2COC(=O)CCC(C)=NOCC[C@@H]2C=C[C@H](OC(C)=O)[C@@H](COC(C)=O)O2)cc1', 'composite z-score', 0.545),
  ('CCOC(=O)NN=C1C[C@@H](O)[C@@H](O)[C@@H]2[C@@H]3C(=O)N(C[C@@H]4CCCO4)C(=O)[C@@H]3CC[C@@H]12', 'composite z-score', 0.193),
  ('C[C@@H]1C=CCC(=O)OC[C@H](C)C(=O)N2CCC[C@H]2C(=O)OC1', 'composite z-score', 2.67),
  ('CCOC(=O)[C@H](Cc1ccccc1)NC(=O)CCC1CC(OC(=O)NCc2ccc3c(c2)OCO3)CC2(CCCC(COC(=O)NCc3cccc(C(F)(F)F)c3)O2)O1 (some centres not stated)', 'composite z-score', 1);
